pKi values, listed per item
Target: hCA XII (Homo sapiens)
Sequence (O43570 25-354): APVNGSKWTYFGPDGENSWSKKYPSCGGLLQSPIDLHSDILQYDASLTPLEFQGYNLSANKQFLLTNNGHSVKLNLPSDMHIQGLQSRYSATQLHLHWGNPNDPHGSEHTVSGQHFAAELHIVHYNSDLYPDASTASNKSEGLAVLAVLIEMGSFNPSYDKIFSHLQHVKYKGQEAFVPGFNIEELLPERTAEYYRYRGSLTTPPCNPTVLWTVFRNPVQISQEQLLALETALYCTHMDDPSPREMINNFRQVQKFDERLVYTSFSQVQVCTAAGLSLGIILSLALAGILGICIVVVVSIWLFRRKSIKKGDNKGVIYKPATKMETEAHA
Test: CA inhibition, stopped-flow CO2 hydrase assay, hCA XII
Format: biochemical
Conditions: Table 1, saccharin-based derivatives; recombinant enzyme, 15 min preincubation, pH 7.5
Procedure: An Applied Photophysics stopped-flow instrument has been used for assaying the CA-catalyzed CO2 hydration activity. […] The initial rates of the CA-catalysed CO2 hydration reaction were followed for a period of 10−100 s. The CO2 concentrations ranged from 1.7 to 17 mM for the determination of the kinetic parameters and inhibition constants. […] The uncatalyzed rates were determined in the same manner and subtracted from the total observed ones. […]
pKi: −log10 of the molar value.

stdin: Report pKi under test system hCA XII (Homo sapiens) for O=C(O)c1ccccc1S(=O)(=O)Nc1ccc(Cl)cc1 [Compound 20] .
stdout: < 3.00

stdin: Report pKi under test system hCA XII (Homo sapiens) for O=C1c2ccccc2S(=O)(=O)N1c1ccccc1 [Compound 29] .
stdout: < 3.00

stdin: Report pKi under test system hCA XII (Homo sapiens) for O=C1c2ccccc2S(=O)(=O)N1c1ccc(Br)cc1 [Compound 33] .
stdout: < 3.00

stdin: Report pKi under test system hCA XII (Homo sapiens) for CC(C)c1ccc(N2C(=O)c3ccccc3S2(=O)=O)cc1 [Compound 39] .
stdout: < 3.00

stdin: Report pKi under test system hCA XII (Homo sapiens) for O=C(O)c1ccccc1S(=O)(=O)Nc1ccc(F)cc1 [Compound 18] .
stdout: < 3.00

stdin: Report pKi under test system hCA XII (Homo sapiens) for COC(=O)c1ccccc1S(=O)(=O)Nc1ccc(Cl)cc1 [Compound 8] .
stdout: < 3.00

stdin: Report pKi under test system hCA XII (Homo sapiens) for O=C(O)c1ccccc1S(=O)(=O)NCc1cn(Cc2ccccc2)nn1 [Compound 49] .
stdout: 5.35

stdin: Report pKi under test system hCA XII (Homo sapiens) for O=C(O)c1ccccc1S(=O)(=O)Nc1ccc([N+](=O)[O-])cc1 [Compound 24] .
stdout: < 3.00

----------
target: hCA XII (Homo sapiens); test: CA inhibition, stopped-flow CO2 hydrase assay, hCA XII; format: biochemical; conditions: Table 2, acesulfame-based derivatives; mean from 3 different assays, errors ± 5–10%
MEASURED_PROPERTY: Ki

CC(C)=CCN1C(=O)C=C(C)OS1(=O)=O [Compound 50]: 0.24 µM
CC1=CC(=O)N(Cc2ccc(Cl)c(Cl)c2)S(=O)(=O)O1 [Compound 52]: 2 µM

stdin: Report Ki under test system hCA XII (Homo sapiens) for CC1=CC(=O)N(Cc2ccccc2)S(=O)(=O)O1 [Compound 51] .
stdout: 0.27 µM

stdin: Report Ki under test system hCA XII (Homo sapiens) for CC1=CC(=O)N(Cc2cn(-c3ccc(Cl)cc3)nn2)S(=O)(=O)O1 [Compound 54] .
stdout: > 1000 µM

stdin: Report Ki under test system hCA XII (Homo sapiens) for CC1=CC(=O)N(Cc2cn(-c3ccccc3)nn2)S(=O)(=O)O1 [Compound 53] .
stdout: > 1000 µM

stdin: Report Ki under test system hCA XII (Homo sapiens) for CC1=CC(OCc2cn(-c3ccc(Cl)cc3)nn2)=NS(=O)(=O)O1 [Compound 57] .
stdout: > 1000 µM

stdin: Report Ki under test system hCA XII (Homo sapiens) for COc1ccc(-n2cc(COC3=NS(=O)(=O)OC(C)=C3)nn2)cc1 [Compound 59] .
stdout: > 1000 µM

stdin: Report Ki under test system hCA XII (Homo sapiens) for CC1=CC(OCc2cn(-c3ccc(Br)cc3)nn2)=NS(=O)(=O)O1 [Compound 58] .
stdout: > 1000 µM

stdin: Report Ki under test system hCA XII (Homo sapiens) for CC1=CC(OCc2cn(-c3ccc(C)cc3)nn2)=NS(=O)(=O)O1 [Compound 56] .
stdout: > 1000 µM

stdin: Report Ki under test system hCA XII (Homo sapiens) for CC1=CC(OCc2cn(Cc3ccccc3)nn2)=NS(=O)(=O)O1 [Compound 60] .
stdout: > 100 µM

stdin: Report Ki under test system hCA XII (Homo sapiens) for CC1=CC(OCc2cn(-c3ccccc3)nn2)=NS(=O)(=O)O1 [Compound 55] .
stdout: > 1000 µM

----------
biological target: hCA II (Homo sapiens, UniProt P00918); experiment: CA inhibition, stopped-flow CO2 hydrase assay, hCA II; format: biochemical; conditions: Table 1, saccharin-based derivatives; recombinant enzyme, 15 min preincubation, pH 7.5
pKi: −log10 of the molar value.
MEASURED_PROPERTY: pKi

COc1ccc(NS(=O)(=O)c2ccccc2C(=O)O)cc1: < 3.00

stdin: Supply recorded pKi for COC(=O)c1ccccc1S(=O)(=O)Nc1cccc([N+](=O)[O-])c1 here.
stdout: < 3.00

stdin: Supply recorded pKi for Cc1ccc(NS(=O)(=O)c2ccccc2C(=O)O)cc1 here.
stdout: < 3.00

stdin: Supply recorded pKi for COC(=O)c1ccccc1S(=O)(=O)Nc1ccc(OC)cc1 here.
stdout: < 3.00

----------
biological target: UniProtKB Q16790; assay: CA inhibition, stopped-flow CO2 hydrase assay, hCA IX; type: biochemical; settings: Table 1, saccharin-based derivatives; recombinant enzyme, 15 min preincubation, pH 7.5
pKi: −log10 of the molar value.
MEASURED_PROPERTY: pKi

1 = CC(C)=CCN1C(=O)c2ccccc2S1(=O)=O [Compound 1]
2 = O=C(O)c1ccccc1S(=O)(=O)Nc1ccc(F)cc1 [Compound 18]
3 = Cc1ccc(-n2cc(CN3C(=O)c4ccccc4S3(=O)=O)nn2)cc1 [Compound 44]
stdin: Task for the reader: rank each entry by its pKi, from the minimum upward. # answer = labels listed in requested order
stdout: 3, 2, 1
(3: 3.17, 2: 4.34, 1: 6.41)

----------
Ki values, listed per item
biological target: hCA I (Homo sapiens, UniProt P00915); assay: CA inhibition, stopped-flow CO2 hydrase assay, hCA I; format: biochemical
Sequence (P00915 whole entry): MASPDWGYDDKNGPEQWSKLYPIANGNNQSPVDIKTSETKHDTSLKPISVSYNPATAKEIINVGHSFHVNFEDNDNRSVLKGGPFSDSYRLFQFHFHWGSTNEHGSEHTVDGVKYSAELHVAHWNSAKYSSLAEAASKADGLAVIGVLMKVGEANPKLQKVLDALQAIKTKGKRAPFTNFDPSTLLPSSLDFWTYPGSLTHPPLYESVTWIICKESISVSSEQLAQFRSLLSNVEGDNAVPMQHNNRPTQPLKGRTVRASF

O=C1c2ccccc2S(=O)(=O)N1Cc1cn(-c2ccccc2)nn1 [Compound 41]: > 1000 µM

// next item, Ki requested
stdin: Supply recorded Ki for CC(C)=CCN1C(=O)c2ccccc2S1(=O)=O [Compound 1] here.
stdout: > 1000 µM

----------
Molecular target: hCA IX (Homo sapiens, UniProt Q16790)
Experiment: CA inhibition, stopped-flow CO2 hydrase assay, hCA IX
Type: biochemical
Conditions: Table 1, saccharin-based derivatives; recombinant enzyme, 15 min preincubation, pH 7.5
Method: An Applied Photophysics stopped-flow instrument has been used for assaying the CA-catalyzed CO2 hydration activity. […] The initial rates of the CA-catalysed CO2 hydration reaction were followed for a period of 10−100 s. The CO2 concentrations ranged from 1.7 to 17 mM for the determination of the kinetic parameters and inhibition constants. […] The uncatalyzed rates were determined in the same manner and subtracted from the total observed ones. […]
MEASURED_PROPERTY: Ki (µM)

A = O=C(O)c1ccccc1S(=O)(=O)Nc1ccc([N+](=O)[O-])cc1
B = COC(=O)c1ccccc1S(=O)(=O)Nc1ccc(C(F)(F)F)cc1
stdin: Select one. Lower Ki: A or B Which one? Tell me its label.
stdout: A
(A: 0.24 µM, B: 563 µM)

----------
molecular target: hCA II (Homo sapiens); experiment: CA inhibition, stopped-flow CO2 hydrase assay, hCA II; format: biochemical; conditions: Table 1, saccharin-based derivatives; recombinant enzyme, 15 min preincubation, pH 7.5
pKi: −log10 of the molar value.
pKi values, listed per item

Answered examples (2):
Cc1ccc(-n2cc(CNS(=O)(=O)c3ccccc3C(=O)O)nn2)cc1: < 3.00
COC(=O)c1ccccc1S(=O)(=O)Nc1ccc([N+](=O)[O-])cc1: < 3.00

stdin: Supply recorded pKi for COC(=O)c1ccccc1S(=O)(=O)Nc1ccc(Br)cc1 here.
stdout: 3.16

stdin: Supply recorded pKi for O=C(O)c1ccccc1S(=O)(=O)Nc1ccc(F)cc1 here.
stdout: < 3.00

stdin: Supply recorded pKi for COc1ccc(-n2cc(CN3C(=O)c4ccccc4S3(=O)=O)nn2)cc1 here.
stdout: < 3.00

----------
Ki values, listed per item
target: hCA II (Homo sapiens, UniProt P00918); assay: CA inhibition, stopped-flow CO2 hydrase assay, hCA II; format: biochemical; conditions: Table 1, saccharin-based derivatives; recombinant enzyme, 15 min preincubation, pH 7.5

O=C(O)c1ccccc1S(=O)(=O)Nc1ccccc1Cl: > 1000 µM
O=C1c2ccccc2S(=O)(=O)N1c1ccc(F)cc1: > 1000 µM
O=C1c2ccccc2S(=O)(=O)N1Cc1cn(-c2ccc(Br)cc2)nn1: 76.4 µM
O=C(CN1C(=O)c2ccccc2S1(=O)=O)c1cccc([N+](=O)[O-])c1: > 1000 µM

// next item, Ki requested
stdin: Supply recorded Ki for O=C1c2ccccc2S(=O)(=O)N1c1ccc([N+](=O)[O-])cc1 here.
stdout: > 1000 µM

----------
target: hCA IX (Homo sapiens, UniProt Q16790); assay: CA inhibition, stopped-flow CO2 hydrase assay, hCA IX; assay type: biochemical
pKi: −log10 of the molar value.
MEASURED_PROPERTY: pKi

O=C(O)c1ccccc1S(=O)(=O)Nc1ccc([N+](=O)[O-])cc1: 6.62
CC(C)=CCN1C(=O)c2ccccc2S1(=O)=O: 6.41

a = O=C1c2ccccc2S(=O)(=O)N1Cc1cccc(Cl)c1
b = O=C1c2ccccc2S(=O)(=O)N1c1ccc([N+](=O)[O-])cc1
stdin: For the two items a and b , which reports the higher pKi value? Which one? Tell me its label.
stdout: a
